# Test system: CAKI-1
# measurement-protocol: cells
# experimental-setup: Homo sapiens, CAKI-1, 48 h, read-out: Median Growth Inhibitory Concentration (GI50)
Collected log10 GI50 values appear next to each entry.
Kindly note that the scale is log10 and the underlying GI50 is in µM.

The cases that follow already have their log10 GI50 on record.
Param item = `O=C1C(=Cc2ccccc2O)CCCC1=Cc1ccccc1O` ; retrieve measured log10 GI50. 0.49

Now give it for `OC(CCc1ccc(F)cc1F)CCc1ccc(F)cc1F` too. 1.34

Entry `COc1cc(/C=C/C(=O)CC(=O)/C=C/c2ccc(O)c(OC)c2)ccc1O` please 1.10

Next molecule up: CC1(/C=C/c2ccccc2O)C=Cc2ccccc2O1 (stereo not drawn) 1.16

Next record, please: `CC(=O)O.O=C1C(=Cc2ccccc2F)CNCC1=Cc1ccccc1F` -0.10

More entries:
Data request, read-out log10 GI50, for `O=C(C=Cc1ccc(F)cc1F)C=Cc1ccc(F)cc1F` 1.18

###

# Tested on: KM12
# measurement-protocol: cells
# experimental-setup: Homo sapiens, KM12, 48 h, read-out: Median Growth Inhibitory Concentration (GI50)
measured-metric: GI50 (µM)
Note: unit µM is implicit; provide only the numeric part.

What value of GI50 has been recorded for this entry: OC(CCc1ccc(F)cc1F)CCc1ccc(F)cc1F [EF19, 1,5-Bis(2,4-difluorophenyl)-pentan-3-ol] 17.6

Queued: O=C(C=Cc1ccc(F)cc1F)C=Cc1ccc(F)cc1F [EF9] 2.3

Another: COc1cc(/C=C/C(=O)CC(=O)/C=C/c2ccc(O)c(OC)c2)ccc1O [Curcumin] 5

Now try O=C1C(=Cc2ccccc2O)CCCC1=Cc1ccccc1O [EF4] . 1.6

Now this one: CC(=O)O.O=C1C(=Cc2ccccc2F)CNCC1=Cc1ccccc1F [EF24] 0.2

Next:
Looking for the measured GI50 of CC1(/C=C/c2ccccc2O)C=Cc2ccccc2O1 (stereo not drawn) [EF7] , can you help? 17.1

###

# System: HOP-62
# measurement-protocol: cells
# experimental-setup: Homo sapiens, HOP-62, 48 h, read-out: Median Growth Inhibitory Concentration (GI50)
# GI50 annotations
# number only, unit µM dropped from output

HOP-62 / GI50 / `CC(=O)O.O=C1C(=Cc2ccccc2F)CNCC1=Cc1ccccc1F` : value? 0.7

Likewise for CC1(/C=C/c2ccccc2O)C=Cc2ccccc2O1 (stereo not drawn) ? 16.3

Record: `COc1cc(/C=C/C(=O)CC(=O)/C=C/c2ccc(O)c(OC)c2)ccc1O` 4

Queued: `O=C1C(=Cc2ccccc2O)CCCC1=Cc1ccccc1O` 2.9

How about this molecule: `O=C(C=Cc1ccc(F)cc1F)C=Cc1ccc(F)cc1F` 16.6

Cool, now `OC(CCc1ccc(F)cc1F)CCc1ccc(F)cc1F` 18

###

# Tested on: LOX IMVI
# experimental-setup: read-out: Median Lethal Concentration (LC50), Melanoma, 48 hours, SRB assay
measured-metric: CC50 (µM)
Response body: numeric value in µM, unit text excluded.

Quick one: CC50 of `O=C1C(=Cc2ccccc2O)COCC1=Cc1ccccc1O` ? 3.6

###

# System: RPMI-7951 human melanoma
# measurement-protocol: Neutral Red Assay, cell viability, RPMI-7951
# experimental-setup: Homo sapiens, RPMI-7951, 72 h, read-out: Neutral Red Uptake, %
measured-metric: viability at 5 µM (%)
Dear colleague, please return just the value in %, with no unit written.

These solved cases illustrate the format of a correct answer.
# input compound: `O=C(C=Cc1ccccc1O)C=Cc1ccccc1O` ; wanted: its viability at 5 µM 46

Continue with `COc1cc(/C=C/C(=O)CC(=O)/C=C/c2ccc(O)c(OC)c2)ccc1O` 100

---
Query (compound): CN(C)/N=N/c1[nH]cnc1C(N)=O [Decabazine, Decarbazine, reference compound] ; field requested: viability at 5 µM 100

Now the compound `O=C(C=Cc1ccc(O)cc1)C=Cc1ccc(O)cc1` 92

Likewise for `O=C(C=Cc1ccc(F)cc1F)C=Cc1ccc(F)cc1F` ? 88

###

# Test system: T-47D
# experimental-setup: read-out: Median Lethal Concentration (LC50), Breast Cancer, 48 hours, SRB assay
measured-metric: CC50 (µM)
Give just the number in µM; leave the unit off.

Can you look up the measured CC50 of O=C1C(=Cc2ccccc2O)COCC1=Cc1ccccc1O [EF25] for me? 92.9

###

Property: CC50; scope: individual compounds
# Test system: NCI-H460
# measurement-protocol: cells
# experimental-setup: Homo sapiens, NCI-H460, 48 h, read-out: Median Lethal Concentration (LC50)
Give the value in µM but do not write µM after it.

Here are 4 compounds together with their reported answers.
Could you tell me which CC50 is on file for `O=C1C(=Cc2ccccc2O)CCCC1=Cc1ccccc1O` ? 40.2

What do you get for `OC(CCc1ccc(F)cc1F)CCc1ccc(F)cc1F` ? 57.5

`CC(=O)O.O=C1C(=Cc2ccccc2F)CNCC1=Cc1ccccc1F` , same question. 50.1

Can you check CC1(/C=C/c2ccccc2O)C=Cc2ccccc2O1 (stereo not drawn) next? 66.8

Further cases:
Bench note: what CC50 did `COc1cc(/C=C/C(=O)CC(=O)/C=C/c2ccc(O)c(OC)c2)ccc1O` show? 63.1

Also, `O=C(C=Cc1ccc(F)cc1F)C=Cc1ccc(F)cc1F` please. 60.9

###

# Tested on: HCT-116
# measurement-protocol: cells
# experimental-setup: Homo sapiens, HCT-116, 48 h, read-out: Median Lethal Concentration (LC50)
measured-metric: CC50 (µM)
Express the result in µM but write the number alone.

Please give the measured CC50 for this molecule: O=C(C=Cc1ccc(F)cc1F)C=Cc1ccc(F)cc1F [EF9] 7.7

Next up: OC(CCc1ccc(F)cc1F)CCc1ccc(F)cc1F [EF19, 1,5-Bis(2,4-difluorophenyl)-pentan-3-ol] 56.3

Record: O=C1C(=Cc2ccccc2O)CCCC1=Cc1ccccc1O [EF4] 13.2

Likewise for CC(=O)O.O=C1C(=Cc2ccccc2F)CNCC1=Cc1ccccc1F [EF24] ? 1.8

Also COc1cc(/C=C/C(=O)CC(=O)/C=C/c2ccc(O)c(OC)c2)ccc1O [Curcumin] , if possible. 50.1

Next:
Bench note: what CC50 did CC1(/C=C/c2ccccc2O)C=Cc2ccccc2O1 (stereo not drawn) [EF7] show? 57.6

###

Reported values of GI50 for individual entries
# Tested on: A549
# measurement-protocol: cells
# experimental-setup: Homo sapiens, A549, 48 h, read-out: Median Growth Inhibitory Concentration (GI50)
Number only, in µM; omit the unit.

What does the data say about its GI50? Entry: `COc1cc(/C=C/C(=O)CC(=O)/C=C/c2ccc(O)c(OC)c2)ccc1O` 12.6

Further cases:
Returns the measured GI50 for the input molecule. Input: `CC(=O)O.O=C1C(=Cc2ccccc2F)CNCC1=Cc1ccccc1F` 1.9

Cool, now CC1(/C=C/c2ccccc2O)C=Cc2ccccc2O1 (stereo not drawn) 14.9

###

Below: a set of entries, each annotated with reported CC50.
# Tested on: HCT-15
# measurement-protocol: cells
# experimental-setup: Homo sapiens, HCT-15, 48 h, read-out: Median Lethal Concentration (LC50)
The answer is to be given in µM; state only the numeric part.

Check out these entries, answers already filled in.
Query (molecule): O=C(C=Cc1ccc(F)cc1F)C=Cc1ccc(F)cc1F [EF9] ; field requested: CC50 64.7

Now this one: CC1(/C=C/c2ccccc2O)C=Cc2ccccc2O1 (stereo not drawn) [EF7] 68.9

// same read-out, input: COc1cc(/C=C/C(=O)CC(=O)/C=C/c2ccc(O)c(OC)c2)ccc1O [Curcumin] 79.4

Next molecule, please.
Requested read-out: CC50. Entry: CC(=O)O.O=C1C(=Cc2ccccc2F)CNCC1=Cc1ccccc1F [EF24] 13.6

###

# System: LOX IMVI
# measurement-protocol: cells
# experimental-setup: Homo sapiens, 48 h, read-out: Median Growth Inhibitory Concentration (GI50)
measured-metric: log10(GI50) (log10 of the value in nM)
Reminder: these figures are log10 of reported GI50, in nM before transformation.

What log10(GI50) value was documented for this compound, `O=C1C(=Cc2ccccc2O)CCCC1=Cc1ccccc1O` ? 3.34

// next record `O=C(C=Cc1ccc(F)cc1F)C=Cc1ccc(F)cc1F` 3.53

###

Recorded CC50 by entry
# Tested on: RXF 393
# measurement-protocol: cells
# experimental-setup: Homo sapiens, RXF 393, 48 h, read-out: Median Lethal Concentration (LC50)
Hi! Could you send only the number? It should be in µM, unit omitted.

Past entries and their recorded results:
Can you look up CC50 on RXF 393 for `OC(CCc1ccc(F)cc1F)CCc1ccc(F)cc1F` ? 58.4

What do we get for `COc1cc(/C=C/C(=O)CC(=O)/C=C/c2ccc(O)c(OC)c2)ccc1O` ? 50.1

Check `O=C(C=Cc1ccc(F)cc1F)C=Cc1ccc(F)cc1F` too. 17.9

Another compound to check: CC1(/C=C/c2ccccc2O)C=Cc2ccccc2O1 (stereo not drawn) 49.2

Try this compound next: `CC(=O)O.O=C1C(=Cc2ccccc2F)CNCC1=Cc1ccccc1F` 3.6

Note: attention shifts to another entry.
API: value(readout= CC50, system= RXF 393, query= `O=C1C(=Cc2ccccc2O)CCCC1=Cc1ccccc1O` ) 30.8
